The values you see were collected from patent US20230039851A1.

- target: T1, Cynomolgus Serum Albumin (cynomolgus monkey, UniProt A2V9Z4 25-608)
- T1 construct: ELISA: albumin coated on plates; pull-down: endogenous albumin in cynomolgus serum; also called cSA; Cyno SA
- T1 sequence (A2V9Z4 25-608 limits assumed): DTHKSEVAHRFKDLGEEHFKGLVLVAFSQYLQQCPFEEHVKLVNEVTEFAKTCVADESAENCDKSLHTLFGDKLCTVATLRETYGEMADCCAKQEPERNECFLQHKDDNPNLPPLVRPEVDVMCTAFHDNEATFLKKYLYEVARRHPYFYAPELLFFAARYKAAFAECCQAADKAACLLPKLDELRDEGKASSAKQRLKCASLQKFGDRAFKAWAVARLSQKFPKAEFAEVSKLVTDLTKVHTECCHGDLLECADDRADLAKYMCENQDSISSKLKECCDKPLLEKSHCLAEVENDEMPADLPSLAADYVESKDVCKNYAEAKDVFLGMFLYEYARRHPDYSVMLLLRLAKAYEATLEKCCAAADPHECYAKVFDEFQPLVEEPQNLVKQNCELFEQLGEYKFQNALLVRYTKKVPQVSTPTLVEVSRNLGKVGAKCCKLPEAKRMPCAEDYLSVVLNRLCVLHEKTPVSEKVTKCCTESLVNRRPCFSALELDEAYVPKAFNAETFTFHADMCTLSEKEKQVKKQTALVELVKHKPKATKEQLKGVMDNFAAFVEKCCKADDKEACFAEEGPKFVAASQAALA
- assay-explanation: pull-down of endogenous albumin from cynomolgus serum

{"binder": "A10V, N33A (designed binder, Variant of B7; not shown: His tag: FN3 domains were purified as His-tagged proteins) MLPAPKNLVVSRVTEDSARLSWTAPDAAFDSFAIAYWEPGIGGEAIWLRVPGSERSYDLTGLKPGTEYKVWIHGVKGGASSPPLIARFTT", "binding result": "no binding"}
{"binder": "A10V, W47A (designed binder, Variant of B7; not shown: His tag: FN3 domains were purified as His-tagged proteins) MLPAPKNLVVSRVTEDSARLSWTAPDAAFDSFNIAYWEPGIGGEAIALRVPGSERSYDLTGLKPGTEYKVWIHGVKGGASSPPLIARFTT", "binding result": "no binding"}
{"binder": "A10V, W71A (designed binder, Variant of B7; not shown: His tag: FN3 domains were purified as His-tagged proteins) MLPAPKNLVVSRVTEDSARLSWTAPDAAFDSFNIAYWEPGIGGEAIWLRVPGSERSYDLTGLKPGTEYKVAIHGVKGGASSPPLIARFTT", "binding result": "no binding"}
{"binder": "A10V, W37A (designed binder, Variant of B7; not shown: His tag: FN3 domains were purified as His-tagged proteins) MLPAPKNLVVSRVTEDSARLSWTAPDAAFDSFNIAYAEPGIGGEAIWLRVPGSERSYDLTGLKPGTEYKVWIHGVKGGASSPPLIARFTT", "binding result": "no binding"}
